Data credit: patent US20040077535A1

target.system: T1, human type I5E receptor protein (human, UniProt Q8NFJ6 1-384)
T1 construct: Stably expressed in CHO/dhfr- cells (clone I5E-4); Whole cells in the FLIPR assays; also called ISE receptor; I5E-4 cell
T1 sequence (Q8NFJ6 whole entry): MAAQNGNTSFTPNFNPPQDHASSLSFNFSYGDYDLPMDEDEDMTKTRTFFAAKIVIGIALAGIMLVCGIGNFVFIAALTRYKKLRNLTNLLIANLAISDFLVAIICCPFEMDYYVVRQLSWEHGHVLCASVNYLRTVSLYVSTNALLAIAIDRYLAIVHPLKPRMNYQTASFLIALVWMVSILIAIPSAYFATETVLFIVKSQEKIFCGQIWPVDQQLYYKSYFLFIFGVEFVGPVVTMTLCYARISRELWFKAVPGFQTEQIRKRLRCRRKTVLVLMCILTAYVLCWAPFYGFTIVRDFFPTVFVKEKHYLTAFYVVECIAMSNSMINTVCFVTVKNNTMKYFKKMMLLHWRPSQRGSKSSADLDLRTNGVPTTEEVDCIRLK
protocol.text: displacement of 125I-MIT1 from I5E-4 CHO cell membrane fraction, glass fiber filter binding assay
In this section we review reported IC50 values for a set of binders.
# value in nM; strip the unit string

binder	unit.of.measurement	IC50
snake venom Mamba Intestinal Toxin 1 (MIT1) (ligand, also called snake venom MIT1; non-labeled MIT1) peptide: AVITGACERDLQCGKGTCCAVSLWIKSVRVCTPVGTSGEDCHPASHKIPFSGQRMHHTCPCAPNLACVQTSPKKFKCLSK	nM	0.032

# input for lookup
// IC50 lookup, key: human type ZAQ ligand mature peptide (type G, 86 amino acid residues) (ligand, also called human type ZAQ ligand peptide; ZAQL-1) peptide: AVITGACERDVQCGAGTCCAISLWLRGLRMCTPLGREGEECHPGSHKVPFFRKRKHHTCPCLPNLLCSRFPDGRYRCSMDLKNINF 0.093
